Recorded log10(kinact/KI) for the following compounds
molecular target: Human FAAH (Homo sapiens); construct: made in house; test: FAAH assay (glutamate dehydrogenase-coupled, oleamide substrate, absorbance at 340 nm); type: biochemical; details: irreversible inhibition, 1-4 nM FAAH, pH 7.4, 30° C., 90 min, read-out: hFAAH kinact/Ki
Sequence (O00519 whole entry): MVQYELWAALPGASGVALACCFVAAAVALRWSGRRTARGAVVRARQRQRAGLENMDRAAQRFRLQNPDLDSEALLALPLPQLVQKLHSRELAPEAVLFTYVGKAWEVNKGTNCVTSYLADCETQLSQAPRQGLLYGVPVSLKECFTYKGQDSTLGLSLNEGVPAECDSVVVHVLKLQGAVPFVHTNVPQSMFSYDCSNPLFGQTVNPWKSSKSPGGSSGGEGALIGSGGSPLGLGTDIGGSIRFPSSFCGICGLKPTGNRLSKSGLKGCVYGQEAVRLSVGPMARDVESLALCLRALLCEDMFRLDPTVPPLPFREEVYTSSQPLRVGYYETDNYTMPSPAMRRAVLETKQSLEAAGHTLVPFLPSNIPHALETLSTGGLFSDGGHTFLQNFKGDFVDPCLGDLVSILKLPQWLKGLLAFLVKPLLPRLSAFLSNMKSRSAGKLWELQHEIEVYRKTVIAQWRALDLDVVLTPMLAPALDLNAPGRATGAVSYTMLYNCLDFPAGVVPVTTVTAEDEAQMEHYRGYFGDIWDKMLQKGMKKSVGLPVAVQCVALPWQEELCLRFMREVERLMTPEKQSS
readout type: log10(kinact/KI) (log10 of the value in M⁻¹ s⁻¹)

O=C(Nc1cccnc1)N1CCC(=Cc2cc(F)cc(Oc3ccc(C(F)(F)F)cn3)c2)CC1; 3.83
O=C(Nc1cccnn1)N1CCC(=Cc2cccc(Oc3ncc(C4CC4)cn3)c2)CC1; 3.52
O=C(Nc1ccc(Oc2cccnc2)nc1)N1CCC(=Cc2cccc(Oc3ccc(C(F)(F)F)cn3)c2)CC1; 3.11
Cc1cncc(NC(=O)N2CCC(=Cc3cccc(Oc4ccc(C(F)(F)F)cn4)c3)CC2)c1; 3.46
O=C(Nc1cccnn1)N1CCC(=Cc2cccc(Oc3nc4ccccc4s3)c2)CC1; 3.87
O=C(Nc1cccnc1)N1CCC(=Cc2ccc(Cl)c(Oc3ccc(C(F)(F)F)cn3)c2)CC1; 2.41
Cc1ccc(NC(=O)N2CCC(=Cc3cccc(Oc4ccc(C(F)(F)F)cc4)c3)CC2)cn1; 3.55
O=C(Nc1cccnc1)N1CCC(=Cc2cccc(OCc3ccccc3)c2)CC1; 3.21
